Data credit: PubChem BioAssay (NCI)

- Test system: CCRF-CEM leukemia
- METHOD: NCI-60 one-dose screen, 48 h
- CONDITION_SUMMARY: 10 µM unless noted
Compounds without any hit were thinned out: in the full panel of roughly 83,000, 20% have a hit. Calls of active or inactive are those of the source. Rule for the calls: active = growth percent below 10; inactive = the rest.
Use one of these outcomes when replying: Yes = active, No = inactive

Consider the worked cases shown below.
>>> class_label("Cc1[nH]c(-c2cc(N)ccc2Cl)c2c1C(=O)CCCC2")
"No"
>>> class_label("CN1CCN(c2ccc3nc(-c4ccc(OCCCCN5CCN(CCCCN6C(=O)c7cccc8cccc(c78)C6=O)CC5)cc4)[nH]c3c2)CC1")
"No"
>>> class_label("CC1(C)CC[C@]2(C(=O)Nc3ccccn3)CC[C@]3(C)C(=CC[C@@H]4[C@@]5(C)C/C(=C/c6cccnc6)C(=O)C(C)(C)[C@@H]5CC[C@]43C)[C@H]2C1")
"No"
>>> class_label("COc1cc(/C=C/c2cc(/C=C/c3ccc(O)c(OC)c3)n(-c3c(C)cccc3C)c(=O)n2)ccc1O")
"Yes"

stdin: Per the records of this test, what outcome belongs to C=C1C(=O)O[C@H]2[C@H]1CC/C(COC(=O)c1cc3cc(OC)ccc3[nH]1)=C\CC[C@@]1(C)O[C@@H]21 ?
stdout: Yes

stdin: Could you check what this test reported for Cc1cc(N2CCOCC2)nc(NCc2cc(Nc3ccnc4cc(Cl)ccc34)ccc2F)n1 ?
stdout: Yes

stdin: Tell me the assay call for CCc1c(Nc2ccccc2C)nc(N)[nH]c1=O please.
stdout: No

stdin: Hello, I am checking results. What call was entered for Cc1nn(-c2cc(=O)[nH]c3ccc(Cl)cc23)c(N)c1C#N ?
stdout: No

stdin: Record lookup: outcome of this test for COc1cc2c(cc1OC)C(Sc1ccc(SC)cc1)c1c(nc(N)c(C#N)c1N)O2 (centres undefined) ?
stdout: Yes
